# Test System: T1, EsCas13d, nuclease-dead (Eubacterium siraeum, UniProt B0MS50, R295A;H300A;R849A;H854A)
# T1 sequence: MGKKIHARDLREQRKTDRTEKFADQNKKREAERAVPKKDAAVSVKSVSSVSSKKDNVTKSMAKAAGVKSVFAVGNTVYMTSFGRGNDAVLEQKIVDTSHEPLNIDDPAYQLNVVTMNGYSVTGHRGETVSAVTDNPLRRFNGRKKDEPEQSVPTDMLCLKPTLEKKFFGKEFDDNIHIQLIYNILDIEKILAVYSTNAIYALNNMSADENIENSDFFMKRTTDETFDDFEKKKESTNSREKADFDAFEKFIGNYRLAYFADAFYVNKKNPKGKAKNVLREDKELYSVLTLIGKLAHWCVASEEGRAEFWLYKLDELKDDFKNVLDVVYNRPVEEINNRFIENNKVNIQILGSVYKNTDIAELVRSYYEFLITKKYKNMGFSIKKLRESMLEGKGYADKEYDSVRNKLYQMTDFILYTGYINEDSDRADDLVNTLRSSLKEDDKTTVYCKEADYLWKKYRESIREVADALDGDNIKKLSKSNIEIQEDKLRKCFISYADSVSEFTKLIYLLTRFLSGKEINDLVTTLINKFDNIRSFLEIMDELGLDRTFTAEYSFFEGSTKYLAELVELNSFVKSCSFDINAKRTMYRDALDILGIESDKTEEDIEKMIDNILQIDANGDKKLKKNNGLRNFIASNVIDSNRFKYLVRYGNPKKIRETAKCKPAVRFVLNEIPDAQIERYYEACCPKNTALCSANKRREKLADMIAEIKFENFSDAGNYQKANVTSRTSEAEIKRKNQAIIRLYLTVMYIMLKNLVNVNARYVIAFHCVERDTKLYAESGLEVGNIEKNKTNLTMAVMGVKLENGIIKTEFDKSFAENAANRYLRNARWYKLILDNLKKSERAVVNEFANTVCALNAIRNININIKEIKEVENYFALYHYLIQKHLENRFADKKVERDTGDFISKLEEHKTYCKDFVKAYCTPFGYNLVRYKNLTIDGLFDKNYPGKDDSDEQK
# Assay Protocol: crRNA (strand 1, pre-loaded); Mg2+; 40 mM Tris-HCl pH 7.5, 150 mM NaCl, 6 mM MgCl2, 1 mM DTT, 0.1% Tween-20, 0.2 mg/ml BSA; 25 C; 10 min per concentration, then washed
# Assay Conditions: tags: His6-TwinStrep-SUMO cleaved; N-terminal SNAP kept (SNAP-Surface 488); label: 3' end held by stalled T7 RNA polymerase
Listed below: Kd values for each entry.
The answer is to be given in nM; state only the numeric part.

Record excerpt, results attached:
Just so you know, measured Kd for target 1 C6G,A14G (mixed) RNA 1: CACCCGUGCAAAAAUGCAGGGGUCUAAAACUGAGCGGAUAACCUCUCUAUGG RNA 2: GGGAAUGGAUCCACAUCUACGAAUUCGUACCAUAGAGGGGUUAUCGGCUCACCGAGAUCGGAAGAGCACACGU came out at 13.5

Lab book: Kd of target 3 insC 3' of 7,insG 3' of 7 (mixed) RNA 1: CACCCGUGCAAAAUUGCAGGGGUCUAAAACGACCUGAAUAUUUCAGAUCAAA RNA 2: GGGAAUGGAUCCACAUCUACGAAUUCGUUUUUGAUCUGAAAUAUUCGCAGGUCUGCAGAUCGGAAGAGCACACGU noted as 16.8

For this binder ( target 2 MT 5'PFS GUA 3'PFS GCC (mixed) RNA 1: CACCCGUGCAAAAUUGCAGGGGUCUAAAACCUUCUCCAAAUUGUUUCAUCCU RNA 2: GGGAAUGGAUCCACAUCUACGAAUUCGUAAGGAUGAAACAAUUUGGAGAAGGCCAGAUCGGAAGAGCACACGU ), measured Kd is 6.4

Record summary for target 2 MT 5'PFS GAA 3'PFS AGA (mixed) RNA 1: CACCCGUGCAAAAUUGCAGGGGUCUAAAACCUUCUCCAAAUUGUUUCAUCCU RNA 2: GGGAAUGGAUCCACAUCUACGAAUUCGAAAGGAUGAAACAAUUUGGAGAAGAGAAGAUCGGAAGAGCACACGU : reported Kd = 5.4

Continuing:
Entry target 2 MT 5'PFS UAC 3'PFS UGC (mixed) RNA 1: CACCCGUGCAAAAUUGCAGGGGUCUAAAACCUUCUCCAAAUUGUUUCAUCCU RNA 2: GGGAAUGGAUCCACAUCUACGAAUUCUACAGGAUGAAACAAUUUGGAGAAGUGCAGAUCGGAAGAGCACACGU ; Kd = 6
